# maps each entry to its IC50
system: liver cell line Pre-S2; test: Toxicity to liver cells, Pre-S2 cell line; type: cell-based
# output: bare number, implied unit µM

>  <compound>
NS(=O)(=O)C#Cc1ccccc1 [Pifithrin-μ, 2-Phenylethynesulfonamide]

>  <target system>
liver cell line Pre-S2

>  <IC50 (µM)>
11.8

$$$$

Attention now shifts to the item below.
Enquiry: Item N#Cc1ccc(COC[C@H]2O[C@@H](n3c(NCc4ccc(Cl)c(Cl)c4)nc4c(N)ncnc43)[C@H](O)[C@@H]2O)cc1 with liver cell line Pre-S2 - IC50?
Return: 18.8
